# TGT: human Nav1.5 (Homo sapiens (Human))
# Sequence (Q14524 whole entry): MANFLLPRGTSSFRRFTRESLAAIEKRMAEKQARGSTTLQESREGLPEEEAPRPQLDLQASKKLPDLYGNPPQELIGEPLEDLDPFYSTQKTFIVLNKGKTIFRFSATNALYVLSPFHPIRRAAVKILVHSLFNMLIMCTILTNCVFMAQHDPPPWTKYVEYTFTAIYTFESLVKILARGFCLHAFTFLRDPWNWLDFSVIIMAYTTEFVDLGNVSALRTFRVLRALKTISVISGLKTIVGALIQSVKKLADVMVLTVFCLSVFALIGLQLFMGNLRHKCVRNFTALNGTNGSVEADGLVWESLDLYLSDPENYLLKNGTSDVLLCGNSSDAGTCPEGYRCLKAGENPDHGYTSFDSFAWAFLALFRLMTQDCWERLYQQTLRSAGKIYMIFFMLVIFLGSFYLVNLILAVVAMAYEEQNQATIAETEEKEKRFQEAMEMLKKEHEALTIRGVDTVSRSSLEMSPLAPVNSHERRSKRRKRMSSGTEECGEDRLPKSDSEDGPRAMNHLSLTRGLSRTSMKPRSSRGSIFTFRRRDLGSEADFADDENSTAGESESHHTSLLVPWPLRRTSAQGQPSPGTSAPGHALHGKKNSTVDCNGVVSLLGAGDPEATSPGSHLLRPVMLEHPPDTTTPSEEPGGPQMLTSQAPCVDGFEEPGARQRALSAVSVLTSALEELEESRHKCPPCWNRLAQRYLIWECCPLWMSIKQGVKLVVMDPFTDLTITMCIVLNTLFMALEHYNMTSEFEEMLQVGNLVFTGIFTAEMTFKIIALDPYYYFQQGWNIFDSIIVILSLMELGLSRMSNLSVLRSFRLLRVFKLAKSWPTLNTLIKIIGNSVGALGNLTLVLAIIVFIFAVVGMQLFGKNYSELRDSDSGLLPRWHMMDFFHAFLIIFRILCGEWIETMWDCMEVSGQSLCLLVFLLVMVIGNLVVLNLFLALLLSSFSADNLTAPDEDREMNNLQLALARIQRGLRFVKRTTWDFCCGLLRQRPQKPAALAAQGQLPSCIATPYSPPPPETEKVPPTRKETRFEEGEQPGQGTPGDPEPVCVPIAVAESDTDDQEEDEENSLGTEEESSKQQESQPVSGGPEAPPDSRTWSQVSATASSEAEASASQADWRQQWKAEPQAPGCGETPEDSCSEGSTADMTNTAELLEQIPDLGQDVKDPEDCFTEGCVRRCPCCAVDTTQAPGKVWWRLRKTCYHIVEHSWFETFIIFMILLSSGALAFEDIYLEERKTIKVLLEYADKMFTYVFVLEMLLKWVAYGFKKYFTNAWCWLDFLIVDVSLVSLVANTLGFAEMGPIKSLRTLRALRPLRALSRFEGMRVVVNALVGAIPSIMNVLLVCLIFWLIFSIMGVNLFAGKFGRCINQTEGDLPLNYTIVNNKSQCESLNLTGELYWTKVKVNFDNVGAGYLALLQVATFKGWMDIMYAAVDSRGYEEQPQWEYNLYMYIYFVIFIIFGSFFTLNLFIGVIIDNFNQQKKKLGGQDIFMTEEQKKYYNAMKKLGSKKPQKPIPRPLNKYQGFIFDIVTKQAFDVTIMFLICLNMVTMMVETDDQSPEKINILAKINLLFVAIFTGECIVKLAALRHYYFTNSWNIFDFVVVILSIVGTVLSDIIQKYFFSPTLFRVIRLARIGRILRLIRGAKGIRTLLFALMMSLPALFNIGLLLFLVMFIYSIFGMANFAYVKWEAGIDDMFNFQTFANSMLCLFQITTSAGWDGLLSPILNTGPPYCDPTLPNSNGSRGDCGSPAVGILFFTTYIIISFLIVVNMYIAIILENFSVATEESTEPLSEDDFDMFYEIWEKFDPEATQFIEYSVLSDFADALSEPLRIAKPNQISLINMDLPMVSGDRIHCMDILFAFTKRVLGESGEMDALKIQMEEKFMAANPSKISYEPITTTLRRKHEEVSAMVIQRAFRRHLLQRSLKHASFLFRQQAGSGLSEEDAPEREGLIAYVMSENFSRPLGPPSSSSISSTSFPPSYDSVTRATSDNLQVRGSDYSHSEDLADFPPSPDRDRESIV
# ASSAY PROCEDURE: Human Nav1.5 inhibitory activity evaluation (automated patch clamp QPatch16X, HEK293 cells stably expressing human Nav1.5)
# Format: cell-based
# DETAILS: human Nav1.5, automated patch clamp
pIC50: −log10 of the molar value.
Exercise: for every item that follows, state its recorded pIC50.

Take a look at these entries with their results.
[
  {
    "COMPOUND": "O=C(N[C@H]1COc2ccc(CCOC(F)F)cc2C1)c1cc2n(n1)CC(COCC(F)(F)F)O2 (stereo partly drawn) [Example 189]",
    "pIC50": "≤ 5.52"
  },
  {
    "COMPOUND": "N#Cc1ccc2c(c1)C[C@@H](NC(=O)c1cc3n(n1)CCC(CCOC(F)F)O3)CO2 (stereo partly drawn) [Example 145]",
    "pIC50": "≤ 5.52"
  }
]

Challenge: Fill in: pIC50 of COC1c2cc(C(F)(F)F)ccc2OC[C@@H]1NC(=O)c1cc2n(n1)CC(COCC(F)(F)F)O2 (single isomer, unassigned; isomer a) [597(isomer A)] is ___
Response given: ≤ 5.52

meta.source: patent US12421225B2
